B1: Double-stranded RNA-binding protein Staufen homolog 1, residues 183 to 249; numbered along this chain, O95793 (parent)
chain: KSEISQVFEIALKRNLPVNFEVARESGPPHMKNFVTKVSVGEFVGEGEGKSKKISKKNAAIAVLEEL

variants of: B1; experiment: abundance fitness (aPCA) (normalised: wild type 0, dead -1); higher = more abundant; growth selection in yeast, the domain comes from the species named; details: Homo sapiens
quantity_kind: abundance fitness
In your answer, state the number alone without any accompanying words.

Some variants with recorded abundance fitness:
> print(dat)
   sequence.variant  number
1               V7Q  -0.681
2              V22C  -0.087

Which abundance fitness is listed for `N19W` ?
-0.246
